system: Human prostate carcinoma PC-3 cells; assay: SRB assay; type: cell-based; conditions: Homo sapiens, PC-3, 48 h
readout name: GI50 (nM)

(P) CCN(c1cccc2c1[nH]c1c(C)ccc(C)c12)S(=O)(=O)c1ccc(OC)cc1 [Compound 16c]
(Q) COc1ccc(S(=O)(=O)Nc2cccc3c2[nH]c2ccccc23)cc1 [Compound 21a]
IN: Lower value of GI50 belongs to which: P or Q ? Mark your answer with the label of the selected entry.
OUT: P

* * *

tested on: Human Bladder Cancer TSGH cells; experiment: MTT assay; type: cell-based; conditions: 72 hr
readout name: IC50 (µM)

Reference set, count: 3
{"compound": "O=[N+]([O-])c1ccc(/N=N/c2c[nH]c3c(NS(=O)(=O)c4ccc(Cl)cc4)cccc23)cc1 [Compound 7a]", "IC50, µM": 3.6}
{"compound": "O=[N+]([O-])c1ccccc1S(=O)(=O)Nc1cccc2cc[nH]c12 [Compound 5h]", "IC50, µM": 125}
{"compound": "Cc1ccc(S(=O)(=O)Nc2cccc3c(/N=N/c4ccccc4)c[nH]c23)cc1 [Compound 7b]", "IC50, µM": 16}

(A) Cc1ccc(C)c2c1[nH]c1c(NS(=O)(=O)c3ccc(Cl)cc3)cccc12 [Compound 6d]
(B) O=S(=O)(Nc1cccc2cc[nH]c12)c1ccc(Cl)cc1 [Compound 5d]
IN: Lower value of IC50 belongs to which: A or B ? Mark your answer with the label of the selected entry.
OUT: B
(B: 35.6 µM, A: 90 µM)

(a) Cc1ccc(C)c2c1[nH]c1c(NS(=O)(=O)c3ccccc3[N+](=O)[O-])cccc12 [Compound 6h]
(b) O=[N+]([O-])c1ccc(S(=O)(=O)Nc2cccc3cc[nH]c23)cc1 [Compound 5e]
IN: Rank a against b by their IC50 values and give the higher one. Mark your answer with the label of the selected entry.
OUT: b
(b: 95.6 µM, a: 37.2 µM)

* * *

test system: Human colorectal adenocarcinoma HT-29 cells; assay: MTT assay; format: cell-based; conditions: 72 hr
pIC50: −log10 of the molar value.
readout name: pIC50

Reference set, count: 2
{"molecule": "O=S(=O)(Nc1cccc2cc[nH]c12)c1ccccc1 [Compound 5a, N-(1H-Indol-7-yl)benzenesulfonamide]", "subject of test": "Human colorectal adenocarcinoma HT-29 cells", "readout name": "pIC50", "quantitative result": 4.28}
{"molecule": "COc1ccc(S(=O)(=O)Nc2cccc3cc[nH]c23)cc1 [Compound 5c]", "subject of test": "Human colorectal adenocarcinoma HT-29 cells", "readout name": "pIC50", "quantitative result": 5.77}

(a) NS(=O)(=O)c1ccc(S(=O)(=O)Nc2cccc3cc[nH]c23)cc1 [Compound 5g]
(b) Cc1ccc(S(=O)(=O)Nc2cccc3c2[nH]c2c(C)ccc(C)c23)cc1 [Compound 6b]
(c) O=S(=O)(Nc1cccc2cc[nH]c12)c1ccc(Cl)cc1 [Compound 5d]
(d) Cc1ccc(C)c2c1[nH]c1c(NS(=O)(=O)c3ccccc3)cccc12 [Compound 6a]
IN: Order field: pIC50 | Direction: descending (largest first) Please list each label once, in the requested order.
OUT: b, c, a, d

* * *

system: Human prostate carcinoma PC-3 cells; experiment: SRB assay; format: cell-based; conditions: Homo sapiens, PC-3, 48 h
readout name: GI50 (µM)

{"compound": "COc1ccc(S(=O)(=O)N(c2cccc3c2[nH]c2c(C)ccc(C)c23)C(C)C)cc1 [Compound 18c]", "subject of test": "Human prostate carcinoma PC-3 cells", "units label": "µM", "GI50": 4}
{"compound": "COc1ccc(S(=O)(=O)Nc2cccc3c2[nH]c2c(C)ccc(C)c23)cc1 [Compound 6c]", "subject of test": "Human prostate carcinoma PC-3 cells", "units label": "µM", "GI50": 0.5}
{"compound": "CCCN(c1cccc2c1[nH]c1c(C)ccc(C)c12)S(=O)(=O)c1ccc(OC)cc1 [Compound 17c]", "subject of test": "Human prostate carcinoma PC-3 cells", "units label": "µM", "GI50": 3.5}

(I) Cc1ccc(C)c2c1[nH]c1c(NS(=O)(=O)c3ccc(Cl)s3)cccc12 [Compound 6k]
(II) Cc1ccc(C)c2c1[nH]c1c(N(C)S(=O)(=O)c3ccc(Cl)s3)cccc12 [Compound 15k]
IN: Rank I against II by their GI50 values and give the higher one. Mark your answer with the label of the selected entry.
OUT: II
